This collection of values is drawn from ChEMBL document CHEMBL1157539.

Answer each item with its documented Inhibition.
Tested on: HepG2
Test: GSK_TCMDC: Percent inhibition of human HepG2 cell line. Test compounds present at 10uM.
Format: functional
Answers are plain numbers, in %.

Sample answers from the record:
compound	system-under-test	Inhibition / %
COc1cc(NC(=O)/C=C/c2cccc3cc[nH]c23)ccc1OCCN(C(C)C)C(C)C.Cl	HepG2	11
O=C(Nc1ccc(Cl)cn1)c1sc2ccccc2c1O	HepG2	2
COc1ccc2c(=NN=Cc3cccc(C)n3)cc(-c3ccccc3)[nH]c2c1	HepG2	0
CN1CCc2cc(I)c(O)cc2C1Cc1ccccc1Cl.Cl (stereo unspecified)	HepG2	0
CCCN1CCN(CCCCNc2c3ccccc3nc3ccccc23)CC1.Cl	HepG2	34

Let us move to another entry and its Inhibition.
Prompt: Look up Inhibition for this compound: CN1CCCN(c2ccnc3cc4c(cc23)N(C(=O)c2ccc(Cl)cc2Cl)CC4)CC1.Cl
Response: 6
